Data origin: the Deep4Chem optical property database

- Assay info: solvent given as SMILES
- Condition: in C1CCOC1
Recorded absorption maximum by entry
Parameter measured: absorption maximum (nm)

• CSc1ccc(/C=C/c2cnc3ccccc3n2)cc1 = 376
• Cc1cc(O)c(C(C)C)cc1/N=C/c1ccc([N+](=O)[O-])cc1 = 402
• CCCCCCc1ccc(-n2c3[n+](c4c5ccccc5c5ccccc5c42)[B-](C)(C)c2ccc4ccccc4c2-3)cc1 = 392
• N#CC(C#N)=C(/C=C/c1cc2c3c(c1)CCCN3CCC2)c1ccc2c3c(cccc13)CC2 = 527
• Cc1sc(-c2ccc(-c3nc(-c4ccccc4)c(-c4ccccc4)[nH]3)cc2)c(C)c1C1=C(c2c(C)n(C)c3ccccc23)C(F)(F)C(F)(F)C1(F)F = 313
• CCCCN1\C(=C/C=C/C=C/C2=[N+](CCCC)c3ccc4cc(Br)ccc4c3C2(C)C)C(C)(C)c2c1ccc1cc(Br)ccc21 = 685
• CN(C)c1ccc(C2=Nc3scc(-c4ccc(C#N)cc4)[n+]3[B-](F)(F)O2)cc1 = 411
• O=P1(c2ccccc2)C(c2ccc(N(c3ccccc3)c3ccccc3)cc2)=Cc2cc3ccccc3cc21 (stereo not drawn) = 407

###

- Assay info: solvent given as SMILES
- Condition: in Cc1ccccc1
Note: every record was labeled by where its absorption maximum sits among class 0: < 400 nm; class 1: ≥ 400 nm and < 500 nm; class 2: ≥ 500 nm

• CN(C)c1ccc(/C=C/C(=O)c2ccc(Cl)cc2)cc1 = class 1
• COc1cc2c3c(c4cc(OC)c(OC)c(OC)c4c2c(OC)c1OC)=[N+]1C(=C(c2c(C)cc(C)cc2C)c2cc4c5cc(OC)c(OC)c(OC)c5c5c(OC)c(OC)c(OC)cc5c4n2[B-]1(F)F)C=3 = class 2
• COc1ccc(N(c2ccc(OC)cc2)c2ccc(-c3ccc4c(c3)C(=O)c3ccccc3C4=O)cc2)cc1 = class 1
• Cc1ccc(C2=[N+]3C(=Cc4c(C)cc(C)n4[B-]3(F)F)c3ccccc32)[nH]1 = class 2
• CCOc1cc2c(cc1/C=C/C(=C(C#N)C#N)c1ccccc1)c1ccccc1n2CC = class 1
• CCn1c2ccccc2c2cc(-c3cc(-c4ccc5c(c4)c4ccccc4n5CC)nc(SC)n3)ccc21 = class 0
• CC(=O)O[B-]1(OC(C)=O)OC(/C=C/C=C/c2ccccc2)=CC(/C=C/C=C/c2ccccc2)=[O+]1 = class 1
• CC(C)(C)c1ccccc1N(c1ccccc1)c1ccc(S(=O)(=O)c2ccc(S(=O)(=O)c3ccc(N(c4ccccc4)c4ccccc4C(C)(C)C)cc3)cc2)cc1 = class 0
• CSc1nc(-c2ccc(-n3c4ccccc4c4ccccc43)cc2)cc(-c2ccc(-n3c4ccccc4c4ccccc43)cc2)n1 = class 0
• CCCCCCCCCCCCC(CCCCCCCCCC)Cn1c2cc(/C=C/C=C/c3nc4ccccc4s3)c3cccc4c5cccc6c(/C=C/C=C/c7nc8ccccc8s7)cc1c(c65)c2c34 (stereo not given) = class 2
• Cc1cc(C)c(B(c2ccc(-c3ccc(-c4nc5c6ccccc6c6ccccc6c5[nH]4)cc3)cc2)c2c(C)cc(C)cc2C)c(C)c1 = class 0

###

- Assay info: solvent given as SMILES
- Condition: in Cc1ccccc1
Field: label. Allowed values: 1 (absorption maximum < 500 nm) or 0 (absorption maximum >= 500 nm).

- CN(C)c1ccc(C#Cc2cc3ccc4cc(C#Cc5ccc(N(C)C)cc5)cc5ccc(c2)c3c45)cc1: 1
- CCCCN1C(=S)c2cccc3cccc(c23)C1=S: 1
- COc1cc2c3c4c(c5ccc(C(C)(C)C)cc5c5cc(C(C)(C)C)cc(c2c(OC)c1OC)c45)=[N+]1C3=Nc2c3c4cc(OC)c(OC)c(OC)c4c4cc(C(C)(C)C)cc5c6cc(C(C)(C)C)ccc6c(c3c54)n2[B-]1(F)F: 0
- CCCCCCCCc1ccc(-n2c3c4ccccc4nnc3c3c2c2nnc4ccccc4c2n3-c2ccc(CCCCCCCC)cc2)cc1: 1
- CC1(C)c2ccccc2N(c2ccc(-c3nc4cc(C#N)c(C#N)cc4nc3-c3ccc(N4c5ccccc5C(C)(C)c5ccccc54)cc3)cc2)c2ccccc21: 1
- COc1ccc2ncccc2c1: 1
- CC(C)[Si](C#Cc1c2ccc(C(C)(C)C)cc2c(C#Cc2c3ccc(C(C)(C)C)cc3c(C#C[Si](C(C)C)(C(C)C)C(C)C)c3ccc(C(C)(C)C)cc23)c2ccc(C(C)(C)C)cc12)(C(C)C)C(C)C: 0
- CN(C)c1ccc(/C=C/C=C/c2nc3ccccc3o2)cc1: 1
- CCC1=C(C)C2=Cc3c4ccccc4c4n3[B-](c3ccc5ccc6cccc7ccc3c5c67)(Oc3ccccc3-4)[N+]2=C1C (stereo not drawn): 0
- Cc1ccc(C2=C3C=c4c(oc5ccccc45)=[N+]3[B-](F)(F)n3c2cc2c4ccccc4oc23)cc1: 0
- COc1cc2c3c4c(c5ccc(C(C)(C)C)cc5c5c(OC)c(OC)c(OC)c(c2c(OC)c1OC)c45)=[N+]1C3=Nc2c3c4cc(OC)c(OC)c(OC)c4c4c(OC)c(OC)c(OC)c5c6cc(C(C)(C)C)ccc6c(c3c54)n2[B-]1(F)F: 0
- c1ccc(N(c2ccccc2)c2c3ccccc3cc3ccccc23)cc1: 1
- CC1(C)c2ccccc2N(c2ccc(-c3ccc(C#N)c(C#N)n3)cc2)c2ccccc21: 1
- C(#Cc1cc2ccc3cccc4ccc(c1)c2c34)c1ccccc1: 1
- Cc1c2oc3c(C)c(N)cc(C(=O)NC4OC(=O)C(C(C)C)N(C)C(=O)CN(C)C(=O)C5CCCN5C(=O)C(C(C)C)NC4=O)c3nc-2c(C(=O)NC2OC(=O)C(C(C)C)N(C)C(=O)CN(C)C(=O)C3CCCN3C(=O)C(C(C)C)NC2=O)c(N)c1=O (stereo not drawn): 0
- CN(c1ccccc1)c1ccc(/C=C2\C(=O)c3ccccc3S2(=O)=O)cc1: 1
- COc1ccc(C2=C(c3ccc(OC)cc3)C(c3ccccc3)=[N+]3C2=Nc2c(-c4ccc(OC)cc4)c(-c4ccc(OC)cc4)c(-c4ccccc4)n2[B-]3(F)F)cc1: 0
- COc1ccc(N(c2ccc(C=C(c3ccccc3)c3ccccc3)cc2)c2ccc(OC)cc2)cc1: 1
- COc1ccc(-c2sc3c(-c4ccc(OC)cc4)c4n(c3c2-c2ccc(OC)cc2)[B-](F)(F)[N+]2=Cc3c(-c5ccc(OC)cc5)c5sc(-c6ccc(OC)cc6)c(-c6ccc(OC)cc6)c5n3[B-](F)(F)[N+]2=C4)cc1: 0
- O=C1c2ccccc2C(=O)c2cc(-c3ccc(N(c4ccccc4)c4ccccc4)cc3)ccc21: 1
- Cc1ccc(N2C(c3ccccc3NS(=O)(=O)c3ccc(C)cc3)=NC(c3ccccc3)C2c2ccccc2)cc1 (stereo not drawn): 1
- COc1ccc(C2=[N+]3C(=Nc4c(-c5ccccc5-c5ccc(C(C)(C)C)cc5)cc(-c5ccc(OC)cc5)n4[B-]3(F)F)c3c2c2cc(C(C)(C)C)ccc2c2ccccc32)cc1: 0
- CC1(C)c2ccccc2N(c2ccc3c(c2)c2cc(N4c5ccccc5C(C)(C)c5ccccc54)ccc2c2nc4ccccc4nc32)c2ccccc21: 1
- CC(C)(C)c1ccc(C2=C(c3ccc(C(C)(C)C)cc3)C(c3ccc(C(C)(C)C)cc3)=[N+]3C2=C(c2ccccc2)c2c(-c4ccc(C(C)(C)C)cc4)c(-c4ccc(C(C)(C)C)cc4)c(-c4ccc(C(C)(C)C)cc4)n2[B-]3(F)F)cc1: 0
- CC1(C)c2ccccc2N(c2ccccc2)c2ccc(-c3ccc(C(=O)c4ccc(-c5ccc6c(c5)C(C)(C)c5ccccc5N6c5ccccc5)cc4)cc3)cc21: 1
- F[B-]1(F)n2c(cc(-c3ccccc3)c2-c2ccccc2)C(c2ccccc2)=C2C=C(c3ccccc3)C(c3ccccc3)=[N+]21: 0
- COc1ccc(N(c2ccccc2)c2ccc(OC)cc2)cc1: 1
- Cc1cc(C)c(-c2nnc(-c3ccc(-n4c5ccccc5c5ccccc54)cc3)o2)c(C)c1: 1

###

- Assay info: solvent given as SMILES
- Condition: in Cc1ccccc1
Below, each of the compounds is paired with its reported absorption maximum value.
Parameter measured: absorption maximum

• CC1(C)c2ccccc2N(c2ccc(-c3ccc4c(c3)C(=O)c3ccc(-c5ccc(N6c7ccccc7C(C)(C)c7ccccc76)cc5)cc3C4=O)cc2)c2ccccc21 = 446 nm
• CCCCCCc1ccc(-n2c3[n+](c4c5ccccc5c5ccccc5c42)[B-](C)(C)c2ccc4ccccc4c2-3)cc1 = 393 nm
• CN(C)c1ccc(/C=C/C(=O)O)cc1 = 362 nm
• COc1cc(OC)c2c(c1)c1c(c3ccc(C(C)(C)C)cc32)=[N+]2C(=Nc3c(-c4cc(OC)c(OC)c(OC)c4)c4c5cc(OC)cc(OC)c5c5cc(C(C)(C)C)ccc5c4n3[B-]2(F)F)C=1c1cc(OC)c(OC)c(OC)c1 = 791 nm
• c1ccc(N2c3ccc4ccccc4c3-c3c4ccccc4cc[n+]3[B-]2(c2ccccc2)c2ccccc2)cc1 = 511 nm
• c1cc2c3c(c1)-c1cccc4cccc(c14)B3c1cccc3cccc-2c13 = 466 nm
• Oc1ccccc1-c1nc2c3ccccc3c3ccccc3c2o1 = 364 nm
• F[B-]1(F)Oc2ccccc2-c2cc(-n3c4ccc(-c5ccccc5)cc4c4cc(-c5ccccc5)ccc43)cc[n+]21 = 374 nm
• COc1ccc(-c2csc(-c3ccncc3)n2)cc1 = 340 nm
